Listing: GI50 of selected molecules
Test system: RPMI-8226
Test: NCI tumour cell line growth inhibition, 48 h
The source made the active and inactive calls. Rule as the data show it: active = GI50 up to about 1.1 µM and inactive = higher.

> print(dat)
                               molecule  parameter.measured              result
1  CSc1cnc2ccccc2c1Sc1c[nH]c2ccccc2c1=O                GI50  6.65 µM (inactive)

Check the records and state GI50 for "Nc1nc(-c2ccccc2)c(CC(=O)O)s1"
> 100 µM (inactive)

Report GI50 for O=C1CC(C(=O)O)Cc2c(Br)ccc(O)c21 (stereo unspecified)
> 100 µM (inactive)

Please list GI50 recorded for the molecule "S=C=Nc1ccc(CSc2nc3ccccc3[nH]2)cc1"
23.2 µM (inactive)

Consider the molecule CC(=O)NC(CS/N=N/c1[nH]cnc1C(N)=O)C(=O)O (stereo unspecified) . State its measured GI50.
1.46 µM (inactive)

Specify measured GI50 for "CCCCOCOc1ccccc1P1(=O)COc2ccccc2OC1" .
87.9 µM (inactive)
